From various publications: IC50 for UniProtKB Q9H8M2.
Number in nM, nothing else.

Known IC50 results, listed for orientation:
- Compound: "Cn1cc(C(=O)NC2CCCN(C(=O)OC(C)(C)C)C2)c2cc[nH]c2c1=O (stereo not shown)"
  Unit Of Measure: "nM"
  IC50: 310
- Compound: "CCCCn1cc(C(=O)NCc2ccccc2)c2cc[nH]c2c1=O"
  Unit Of Measure: "nM"
  IC50: 600
- Compound: "Cn1cc(-c2ccc3c(c2)N(C(=O)OC(C)(C)C)CCC3)c2cc[nH]c2c1=O"
  Unit Of Measure: "nM"
  IC50: 130
- Compound: "CC(C)CCN1CCC(N(C)C(=O)c2cn(C)c(=O)c3[nH]ccc23)CC1"
  Unit Of Measure: "nM"
  IC50: 4700
- Compound: "COc1cc(-c2cn(C)c(=O)c3cnccc23)cc(OC)c1CN(C)CC(=O)NCCCCCCNc1ccc2c(c1)C(=O)N(C1CCC(=O)NC1=O)C2=O (stereo not shown)"
  Unit Of Measure: "nM"
  IC50: 56.6
- Compound: "COc1cc(-c2cn(C)c(=O)c3cc(C(=N)NC4CCS(=O)(=O)CC4)sc23)ccc1OCC(=O)NCCCCNC(=O)COc1cccc2c1C(=O)N(C1CCC(=O)NC1=O)C2=O (stereo not shown)"
  Unit Of Measure: "nM"
  IC50: 13.5

Attention now shifts to the item below.
(Q) Entry COc1cc(-c2cn(C)c(=O)c3cnccc23)cc(OC)c1CN(C)CC(=O)NCCCCCCCCNc1cccc2c1C(=O)N(C1CCC(=O)NC1=O)C2=O (stereo not shown) , system UniProtKB Q9H8M2: what IC50 was measured?
(A) 83.1
